# Test system: 276233-004-R-J1-PDC complex spheroid viability;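 also: spheroids exposed to drugs for seven days; 100% = DMSO vehicle control viability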
# assayRemarks: Anticancer human tumor 276233-004-R-J1-PDC patient-derived colon adenocarcinoma cell line growth inhibition [GQUAD]
# conditionDetails: second compound 0.1 µM; first compound 0.000999 µM; stronger effect = lower value
metricName: viability, T/C (%)
Reply numerically in %, unit not repeated.

compound	viability, T/C / %
Cn1ncnc1[C@H]1c2n[nH]c(=O)c3cc(F)cc(c23)N[C@@H]1c1ccc(F)cc1 + Cc1cnc(CNC(=O)c2c(=O)c3ccc(N4CCCN(C)CC4)nc3n3c2sc2ccccc23)cn1	92.2
Cn1ncnc1[C@H]1c2n[nH]c(=O)c3cc(F)cc(c23)N[C@@H]1c1ccc(F)cc1 + Cc1[nH]c2ccc(F)cc2c1-c1nc2c3cccnc3c3ncccc3c2[nH]1	91.2
CCc1c2c(nc3ccc(O)cc13)-c1cc3c(c(=O)n1C2)COC(=O)[C@]3(O)CC + Cc1[nH]c2ccc(F)cc2c1-c1nc2c3cccnc3c3ncccc3c2[nH]1	76.3
Cc1[nH]c2ccccc2c1CCNCc1ccc(/C=C/C(=O)NO)cc1 + CN(C)c1ccc(Nc2c3ccc(NC(=O)CCN4CCCC4)cc3nc3cc(NC(=O)CCN4CCCC4)ccc23)cc1	87.7
CC[C@@]1(O)C(=O)OCc2c1cc1n(c2=O)Cc2cc3c(CN(C)C)c(O)ccc3nc2-1 + CN(C)c1ccc(Nc2c3ccc(NC(=O)CCN4CCCC4)cc3nc3cc(NC(=O)CCN4CCCC4)ccc23)cc1	84.2

Value sought: viability, T/C, system 276233-004-R-J1-PDC complex spheroid viability, item Cc1[nH]c2ccccc2c1CCNCc1ccc(/C=C/C(=O)NO)cc1 + Cc1[nH]c2ccc(F)cc2c1-c1nc2c3cccnc3c3ncccc3c2[nH]1 . Result: 76.9

The compound CCc1c2c(nc3ccc(O)cc13)-c1cc3c(c(=O)n1C2)COC(=O)[C@]3(O)CC + Cc1cnc(CNC(=O)c2c(=O)c3ccc(N4CCCN(C)CC4)nc3n3c2sc2ccccc23)cn1 , when measured on 276233-004-R-J1-PDC complex spheroid viability, yielded viability, T/C of 97.9

Item Cn1ncnc1[C@H]1c2n[nH]c(=O)c3cc(F)cc(c23)N[C@@H]1c1ccc(F)cc1 + CN(C)c1ccc(Nc2c3ccc(NC(=O)CCN4CCCC4)cc3nc3cc(NC(=O)CCN4CCCC4)ccc23)cc1 ; assay system 276233-004-R-J1-PDC complex spheroid viability; viability, T/C reported as 90.3

Form field viability, T/C for item CCc1c2c(nc3ccc(O)cc13)-c1cc3c(c(=O)n1C2)COC(=O)[C@]3(O)CC + CN(C)c1ccc(Nc2c3ccc(NC(=O)CCN4CCCC4)cc3nc3cc(NC(=O)CCN4CCCC4)ccc23)cc1 on 276233-004-R-J1-PDC complex spheroid viability: 94.3

Short answer on 276233-004-R-J1-PDC complex spheroid viability for CC[C@@]1(O)C(=O)OCc2c1cc1n(c2=O)Cc2cc3c(CN(C)C)c(O)ccc3nc2-1 + Cc1[nH]c2ccc(F)cc2c1-c1nc2c3cccnc3c3ncccc3c2[nH]1 , viability, T/C: 93.4

Entry CC[C@@]1(O)C(=O)OCc2c1cc1n(c2=O)Cc2cc3c(CN(C)C)c(O)ccc3nc2-1 + Cc1cnc(CNC(=O)c2c(=O)c3ccc(N4CCCN(C)CC4)nc3n3c2sc2ccccc23)cn1 , 276233-004-R-J1-PDC complex spheroid viability data, viability, T/C value: 93.3

For the compound Cc1[nH]c2ccccc2c1CCNCc1ccc(/C=C/C(=O)NO)cc1 + Cc1cnc(CNC(=O)c2c(=O)c3ccc(N4CCCN(C)CC4)nc3n3c2sc2ccccc23)cn1 , the measured viability, T/C on 276233-004-R-J1-PDC complex spheroid viability was 80.1
